Recorded values, source PubChem BioAssay AID2501.

EXPERIMENTAL_DETAILS: counter assay for TAg ATPase ADP read-out – biochemical, ADP-Hunter, fluorescence, counter-screen (AID 2501);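 note: purified T antigen ATPase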
CONDITION_CONTEXT: series mostly up to 100 µM
The whole screen tested about 2,200 compounds, of which about 1,200 (55%) were called active. The set was probably picked from earlier hits. This is one part of the list.

# COMPOUND, IC50
records = [
    ("O=C(NC(=S)N1CCN(c2ccc(O)cc2)CC1)c1cccs1", "5.56 µM (active)"),
    ("O=c1c(-c2ccc([N+](=O)[O-])cc2)coc2c(O)c(O)ccc12", "11.1 µM (active)"),
    ("N#Cc1c(Nc2ccccc2C(F)(F)F)s[nH]c1=O", "inactive"),
    ("O=C(NNC(=O)c1ccccc1O)c1ccc(-c2ccc([N+](=O)[O-])cc2)o1", "inactive"),
    ("CC(=O)Oc1ccc(C(=O)Nc2ccccc2C(=O)N2CCCCC2)cc1", "inactive"),
    ("CCC[C@@H]1CCCO[C@@](C(=O)NCc2ccc(S(C)(=O)=O)cc2)(C(F)(F)F)C1", "inactive"),
    ("CCSC1(SCC)N=C(N)C2(C#N)C(c3ccc(OC)c(OC)c3OC)C12C#N (stereo unspecified)", "96.4 µM (active)"),
    ("O=C(NCc1ccc(F)cc1)C(=O)NCC1OCCN1S(=O)(=O)c1cccs1 (stereo unspecified)", "inactive"),
    ("NNC(=O)c1sc2cc(C(F)(F)F)cnc2c1-c1ccccn1", "inactive"),
    ("CCOC(=O)c1cc(-c2ccc(N)cc2)sc1N", "5.53 µM (active)"),
    ("CCn1c(SCC(=O)c2ccc(O)c(O)c2)nnc1-c1ccc(C)cc1", "6.52 µM (active)"),
    ("CCc1cc(N2CCOCC2)cc2c1[nH]c1ccccc12", "6.15 µM (active)"),
    ("C=CCSc1nc(N)c(NC(=O)c2ccco2)c(=O)[nH]1", "inactive"),
    ("O=S(=O)(c1cccs1)N1CCN(c2ccc(O)cc2)CC1", "5.21 µM (active)"),
    ("Cc1ccc(Cn2c(=S)[nH]c3ccc(N4CCOCC4)cc3c2=O)o1", "inactive"),
    ("Oc1ccccc1C(=S)N1CCCCCC1", "13.9 µM (active)"),
    ("CCCC[C@@H]1CN=C(N)N1CCc1cc(C(F)(F)F)cc(C(F)(F)F)c1", "inactive"),
    ("NC(=O)Cn1c(=O)n(CCC(=O)NCCSCc2ccccc2)c(=O)c2ccccc21", "inactive"),
    ("CNc1nn(-c2cccc(Cl)c2)nc1N", "9.76 µM (active)"),
    ("O=C(c1cccs1)N1CCN(C(=O)C2CCCO2)CC1 (stereo unspecified)", "inactive"),
    ("CC1(C)C(/C=C/C=C/C=C/C=C2\\N(CCCCS(=O)(=O)O)c3ccc4ccccc4c3C2(C)C)=[N+](CCCCS(=O)(=O)[O-])c2ccc3ccccc3c21", "10.5 µM (active)"),
    ("O=C1NN(c2ccccc2)C(=O)/C1=C/c1ccc(-c2ccc(Cl)c(C(=O)O)c2)o1", "13.7 µM (active)"),
    ("Cc1cc(C)c2c(CCl)cc(=O)oc2c1", "inactive"),
    ("C=C1C(=O)O[C@@H]2[C@H]3O[C@]3(C)CC/C=C(\\C)CC[C@@H]12", "inactive"),
    ("O=C(CCC(=O)N1CCN(c2ccc(O)cc2)CC1)c1cccs1", "2.87 µM (active)"),
    ("CC[C@H](C)/C=C/C1=CC2=C(Cl)C(=O)[C@@]3(C)OC(=O)C(C(=O)[C@H](C)[C@@H](C)O)=C3C2=CO1", "inactive"),
    ("O=c1c2cc(N3CCOCC3)ccc2[nH]c(=S)n1Cc1ccco1", "inactive"),
    ("CC(C)C1Cc2c(sc3c2c(=O)n(-c2ccccc2)c2n[nH]c(=S)n32)CO1 (stereo unspecified)", "21.9 µM (active)"),
    ("Cc1ccc(C(C(=O)NCc2ccc(F)cc2)N(CCCO)C(=O)C2COc3ccccc3O2)o1 (stereo unspecified)", "inactive"),
    ("CCc1cc(=O)oc2cc(OCC(N)=O)c(Cl)cc12", "inactive"),
    ("COC(=O)c1sc2nc(-c3ccco3)ccc2c1N", "inactive"),
    ("CCCCC1(C)OC(=O)C(=Cc2ccc(-c3ccc(Cl)c(C(=O)O)c3)o2)C(=O)O1 (stereo unspecified)", "inactive"),
    ("CCOC(=O)c1sc(N)nc1C(C)C", "inactive"),
    ("O=C(OCC1O[C@@H](OC(=O)c2cc(O)c(O)c(O)c2)[C@@H](OC(=O)c2cc(O)c(O)c(O)c2)[C@@H](OC(=O)c2cc(O)c(O)c(O)c2)[C@@H]1OC(=O)c1cc(O)c(O)c(O)c1)c1cc(O)c(O)c(O)c1 (stereo partly specified)", "inactive"),
    ("CCn1c(SCc2ccc(C(=O)Nc3nccs3)cc2)nnc1-c1ccc(NC(C)=O)cc1", "inactive"),
    ("O=C(Nc1ccc(Cl)c(Cl)c1)Oc1ccc(NC(=O)c2ccco2)cc1", "23.2 µM (active)"),
    ("Cn1c(SCC(=O)c2cc(Cl)c(Cl)s2)nnc1-c1ccco1", "inactive"),
    ("NC(=O)c1ccsc1NC(=O)C1CCN(S(=O)(=O)c2cccs2)CC1", "inactive"),
    ("COc1ccc(-n2c(=O)c3c4c(sc3n3c(=S)[nH]nc23)COC(C(C)C)C4)cc1 (stereo unspecified)", "16.3 µM (active)"),
    ("C#CCOCCOCCOCCNc1nc(N2CCN(C(=O)CCCCCCCCCCNC(=O)[C@H](CCCCN)n3cc(C[C@@H](C)CC)nn3)CC2)nc(N2CCN(C(=O)CCCCCCCCCCNC(=O)[C@H](CCCCN)n3cc(C[C@@H](C)CC)nn3)CC2)n1", "inactive"),
    ("Cn1c(SCC(=O)c2ccc(O)c(O)c2)nnc1-c1cccs1", "15.9 µM (active)"),
]
